I'd appreciate it if you could supply % vitality of the cells, MMH/GH 5 + 24 h values for the items below.
- System: MMH/GH5 cells
- PROTOCOL_DESCRIPTION: cellular survival of MMH/GH5, Trypan Blue exclusion
- Format: cell-based, mice
- Design: unit of the concentration uncertain
- RUN_PARAMETERS: 50 (unit uncertain); 5 h treatment + 24 h normal medium; Trypan Blue (Table 4)
// note: answer is a bare numeric in %

Input: Note down % vitality of the cells, MMH/GH 5 + 24 h recorded for Oc1c(Cl)c(Cl)c(Cl)c(Cl)c1Cl [PCP, PentaChloroPhenol]
Output: 70

Input: Answer with the recorded % vitality of the cells, MMH/GH 5 + 24 h for the molecule listed here: Oc1c(Cl)c(Cl)c(O)c(Cl)c1Cl [TCHQ, TetraChloroHydroQuinone]
Output: 30

Input: Please list % vitality of the cells, MMH/GH 5 + 24 h recorded for the molecule c1ccc2c(c1)cc1ccc3cccc4ccc2c1c34 [BaP, Benzo(a)Pyrene]
Output: 90

Input: Please list % vitality of the cells, MMH/GH 5 + 24 h recorded for the molecule O=[N+]([O-])c1ccc(Cl)c([N+](=O)[O-])c1 [CDNB, 1-Chloro-2,4-DiNitro-Benzene]
Output: 20

Attribution: patent US20050255595A1
